assay comment: Color development of photochromic cured product (color density, maximum absorption wavelength), xenon lamp 120 seconds
Type: physicochemical
experimental setup: monomers 3PG:45,4G:45,GMA:9,MSD:1; 0.05 part fulgimide; 2 mm; 20±1° C.; 120 seconds irradiation
endpoint: Color density (Abs)

Consider the worked cases shown below.
CC1=C2C(=O)N(c3cccc(C(=O)Oc4ccccc4)c3)C(=O)C2C2(c3sccc31)C1CC3CC(C1)CC2C3 (centres unmarked) [I-(14)] = 1.12
CC1=C2C(=O)N(c3cccc(C(F)(F)F)c3)C(=O)C2C2(c3sc(-c4ccccc4)cc31)C1CC3CC(C1)CC2C3 (centres unmarked) [I-(4)] = 1.22
CC1=C2C(=O)N(c3ccccc3C#N)C(=O)C2C2(c3sc(-c4ccccc4)cc31)C1CC3CC(C1)CC2C3 (centres unmarked) [Fulgimide compound B, reference compound] = 0.64
COc1ccc(-c2cc3c(s2)C2(C4CC5CC(C4)CC2C5)C2C(=O)N(c4cccc(C#N)c4)C(=O)C2=C3C)cc1 (centres unmarked) [I-(1)] = 1.33
CC1=C2C(=O)N(c3cccc(S(=O)(=O)c4ccccc4)c3)C(=O)C2C2(c3sccc31)C1CC3CC(C1)CC2C3 (centres unmarked) [I-(13)] = 1.25

A = CC1=C2C(=O)N(c3cccc(S(C)(=O)=O)c3)C(=O)C2C2(c3occc31)C1CCCC2CCC1 (centres unmarked) [I-(7)]
B = CC1=C2C(=O)N(c3ccccc3)C(=O)C2C2(c3sc(-c4ccccc4)cc31)C1CC3CC(C1)CC2C3 (centres unmarked) [Fulgimide compound A]
C = CC1=C2C(=O)N(C#N)C(=O)C2C2(c3sc(-c4ccccc4)cc31)C1CC3CC(C1)CC2C3 (centres unmarked) [Fulgimide compound E, reference compound]
Order the records so the highest Color density appears first and the lowest last. As an answer, provide the labels arranged in the order called for.
A, C, B

---

assay comment: Color development of photochromic cured product (color density, maximum absorption wavelength), xenon lamp 120 seconds
Type: physicochemical
experimental setup: monomers 3PG:45,4G:45,GMA:9,MSD:1; 0.05 part fulgimide; 2 mm; 20±1° C.; 120 seconds irradiation
endpoint: Color density (Abs)

CC1=C2C(=O)N(CC#N)C(=O)C2C2(c3sc(-c4ccccc4)cc31)C1CC3CC(C1)CC2C3 (stereo not drawn) [Fulgimide compound D, reference compound] = 0.72
COC(=O)c1cccc(N2C(=O)C3=C(C)c4ccsc4C4(C5CC6CC(C5)CC4C6)C3C2=O)c1 (stereo not drawn) [I-(10)] = 1.14
CC(=O)c1cccc(N2C(=O)C3=C(C)c4cc(C)oc4C4(C5CCC4CC5)C3C2=O)c1 (stereo not drawn) [I-(6)] = 1.06
COc1ccc(-c2cc3c(s2)C2(C4CC5CC(C4)CC2C5)C2C(=O)N(CC#N)C(=O)C2=C3C)cc1 (stereo not drawn) [Fulgimide compound F, reference compound] = 0.78

P = CC1=C2C(=O)N(c3cccc([N+](=O)[O-])c3)C(=O)C2C2(c3sccc31)C1CC3CC(C1)CC2C3 (stereo not drawn) [I-(5)]
Q = CC1=C2C(=O)N(c3ccc(C#N)cc3)C(=O)C2C2(c3sc(-c4ccccc4)cc31)C1CC3CC(C1)CC2C3 (stereo not drawn) [Fulgimide compound C, reference compound]
Lab note: check whether P or Q has the lower measured Color density. Answer by stating the label of the chosen item.
Q
